# Measurement target: panel of more than 300 wild-type and mutant kinases (313 kinase panel) (Homo sapiens, UniProt Q12852)
# Sequence (Q12852 1-859): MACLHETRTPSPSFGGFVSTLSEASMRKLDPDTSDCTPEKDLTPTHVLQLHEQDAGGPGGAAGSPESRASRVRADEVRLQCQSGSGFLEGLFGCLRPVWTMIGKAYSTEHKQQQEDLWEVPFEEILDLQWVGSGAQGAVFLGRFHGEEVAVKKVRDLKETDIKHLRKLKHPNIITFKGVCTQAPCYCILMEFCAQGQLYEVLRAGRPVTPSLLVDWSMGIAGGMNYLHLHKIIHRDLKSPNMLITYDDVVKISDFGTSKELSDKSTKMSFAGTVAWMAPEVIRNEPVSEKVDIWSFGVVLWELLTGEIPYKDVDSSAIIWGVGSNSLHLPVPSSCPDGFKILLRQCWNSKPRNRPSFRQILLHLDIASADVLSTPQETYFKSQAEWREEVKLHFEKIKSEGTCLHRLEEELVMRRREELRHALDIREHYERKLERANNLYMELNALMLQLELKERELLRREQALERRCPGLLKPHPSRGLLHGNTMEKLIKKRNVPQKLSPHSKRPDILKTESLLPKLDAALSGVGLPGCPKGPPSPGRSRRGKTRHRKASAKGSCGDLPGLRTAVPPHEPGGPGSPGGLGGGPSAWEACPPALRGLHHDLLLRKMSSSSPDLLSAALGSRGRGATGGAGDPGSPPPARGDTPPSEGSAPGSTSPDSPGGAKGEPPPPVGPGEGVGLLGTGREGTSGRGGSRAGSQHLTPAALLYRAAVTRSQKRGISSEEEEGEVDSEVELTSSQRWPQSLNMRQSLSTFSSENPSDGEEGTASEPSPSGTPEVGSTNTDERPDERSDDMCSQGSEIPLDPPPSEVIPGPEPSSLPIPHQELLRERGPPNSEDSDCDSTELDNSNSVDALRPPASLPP
# Measurement description: Kinase profiling in a biochemical assay panel (mobility shift assays and ELISA), %-inhibition at 1 μM; selectivity entropy
# Experimental conditions: kinase DLK; compound at 1 μM
Kindly state %-inhibition of DLK for each of the entries shown.

Consider the following items and state reported %-inhibition of DLK for each.
1. O=S(=O)(c1cccc2cnccc12)N1CCCNCC1
2. COc1cc2c(Nc3ccc(Br)cc3F)ncnc2cc1OCC1CCN(C)CC1
3. CNC(=O)c1cc(Oc2ccc(NC(=O)Nc3ccc(Cl)c(C(F)(F)F)c3)c(F)c2)ccn1
4. CO[C@H]1C[C@@H]2CC[C@@H](C)[C@@](O)(O2)C(=O)C(=O)N2CCCC[C@H]2C(=O)O[C@H]([C@H](C)C[C@@H]2CC[C@@H](OCCO)[C@H](OC)C2)CC(=O)[C@H](C)/C=C(\C)[C@@H](O)[C@@H](OC)C(=O)[C@H](C)C[C@H](C)/C=C/C=C/C=C/1C
5. Cc1nc(Nc2ncc(C(=O)Nc3c(C)cccc3Cl)s2)cc(N2CCN(CCO)CC2)n1
6. COc1cc(Nc2c(C#N)cnc3cc(OCCCN4CCN(C)CC4)c(OC)cc23)c(Cl)cc1Cl
7. CCCS(=O)(=O)Nc1ccc(F)c(C(=O)c2c[nH]c3ncc(-c4ccc(Cl)cc4)cc23)c1F

-11%
20%
-13%
-5%
20%
77%
8%

----------
# Measurement target: panel of more than 300 wild-type and mutant kinases (313 kinase panel) (Homo sapiens, UniProt P51817)
# Sequence (P51817 1-358): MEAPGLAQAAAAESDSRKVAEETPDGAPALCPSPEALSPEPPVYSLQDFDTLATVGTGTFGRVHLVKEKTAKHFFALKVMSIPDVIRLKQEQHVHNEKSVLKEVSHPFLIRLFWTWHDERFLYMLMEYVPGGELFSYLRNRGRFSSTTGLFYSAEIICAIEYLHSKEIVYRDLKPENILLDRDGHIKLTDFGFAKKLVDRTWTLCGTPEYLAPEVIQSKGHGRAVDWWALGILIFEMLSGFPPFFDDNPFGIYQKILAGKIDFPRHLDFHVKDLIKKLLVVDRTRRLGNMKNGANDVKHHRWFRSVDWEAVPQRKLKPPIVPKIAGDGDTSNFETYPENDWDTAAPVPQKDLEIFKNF
# Measurement description: Kinase profiling in a biochemical assay panel (mobility shift assays and ELISA), %-inhibition at 1 μM; selectivity entropy
# Experimental conditions: kinase PRKX; 1 μM
Measure name: %-inhibition of PRKX (%)
One number for each entry, in %.

Consider the reported %-inhibition of PRKX for these compounds:
CCCS(=O)(=O)Nc1ccc(F)c(C(=O)c2c[nH]c3ncc(-c4ccc(Cl)cc4)cc23)c1F
-3.45
COc1cc2nccc(Oc3ccc(NC(=O)C4(C(=O)Nc5ccc(F)cc5)CC4)cc3)c2cc1OC [cabozantinib]
-2.42
CO[C@H]1C[C@@H]2CC[C@@H](C)[C@@](O)(O2)C(=O)C(=O)N2CCCC[C@H]2C(=O)O[C@H]([C@H](C)C[C@@H]2CC[C@@H](OC(=O)C(C)(CO)CO)[C@H](OC)C2)CC(=O)[C@H](C)/C=C(\C)[C@@H](O)[C@@H](OC)C(=O)[C@H](C)C[C@H](C)/C=C/C=C/C=C/1C
-1.9

Consider the following items and state reported %-inhibition of PRKX for each.
1. COc1cc2c(Nc3ccc(Br)cc3F)ncnc2cc1OCC1CCN(C)CC1
2. O=S(=O)(c1cccc2cnccc12)N1CCCNCC1
3. CNC(=O)c1cc(Oc2ccc(NC(=O)Nc3ccc(Cl)c(C(F)(F)F)c3)c(F)c2)ccn1
4. CO[C@H]1C[C@@H]2CC[C@@H](C)[C@@](O)(O2)C(=O)C(=O)N2CCCC[C@H]2C(=O)O[C@H]([C@H](C)C[C@@H]2CC[C@@H](OCCO)[C@H](OC)C2)CC(=O)[C@H](C)/C=C(\C)[C@@H](O)[C@@H](OC)C(=O)[C@H](C)C[C@H](C)/C=C/C=C/C=C/1C

[-5.69, 86, -5.52, -4.49]
